Target: Avi-KRAS G12V (2-169) GTP/RAF1 RBD-3xFLAG (51-131) (Homo sapiens, UniProt P01116, G12V)
Construct: Avi-KRAS G12V (2-169)
Sequence (P01116 2-169 isoform P01116-2 G12V): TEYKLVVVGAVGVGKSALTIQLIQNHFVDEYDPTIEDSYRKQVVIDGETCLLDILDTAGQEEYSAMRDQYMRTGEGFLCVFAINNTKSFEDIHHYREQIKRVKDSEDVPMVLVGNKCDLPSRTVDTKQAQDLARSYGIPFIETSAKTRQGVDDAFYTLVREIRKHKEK
Assay: Raf1-KRAS G12V-GTP disruption HTRF assay (Biological Example 3)
Type: binding
Conditions: KRAS G12V, GTP-loaded
pIC50: −log10 of the molar value.
Observable: pIC50

• CCN(c1nc(OC[C@@]23CCCN2C[C@H](F)C3)nc2c(F)c(-c3ccc(F)c4sc(N)c(C#N)c34)c(C(F)(F)F)cc12)C1C[C@@H](C)N(C(=O)C2CC2)C1 (stereo partly drawn) = 6.00 to 7.00
• CCN(c1nc(OC[C@@]23CCCN2C[C@H](F)C3)nc2c(F)c(-c3ccc(F)c4sc(N)c(C#N)c34)c(C(F)(F)F)cc12)[C@H]1CC(=O)N2CCC[C@H]12 (atropisomer, axis not shown) = ≥ 7.00

Ask | Find pIC50 (Avi-KRAS G12V (2-169) GTP/RAF1 RBD-3xFLAG (51-131) (Homo sapiens, UniProt P01116, G12V)) for the entry CCN(c1nc(OC[C@@]23CCCN2C[C@H](F)C3)nc2c(F)c(-c3ccc(F)c4sc(N)c(C#N)c34)c(C(F)(F)F)cc12)[C@H]1CCN(C(=O)[C@@H]2CC2(F)F)[C@H]1C (atropisomer, axis not shown)
Reply | 5.00 to 6.00

Ask | Here is the next compound: CCN(c1nc(OC[C@@]23CCCN2C[C@H](F)C3)nc2c(F)c(-c3ccc(F)c4sc(N)c(C#N)c34)c(C(F)(F)F)cc12)[C@@H]1C[C@H]2CCC(=O)N2C1 (atropisomer, axis not shown)
Reply | 6.00 to 7.00

Ask | For CCN(c1nc(OC[C@@]23CCCN2C[C@H](F)C3)nc2c(F)c(-c3ccc(F)c4sc(N)c(C#N)c34)c(C(F)(F)F)cc12)[C@H]1CCN(C(=O)C2C[C@H]2F)[C@@H]1C (stereo partly drawn) then?
Reply | 6.00 to 7.00

Ask | Please do the same for CCN(c1nc(OC[C@@]23CCCN2C[C@H](F)C3)nc2c(F)c(-c3ccc(F)c4sc(N)c(C#N)c34)c(C(F)(F)F)cc12)[C@H]1CCN(C(=O)O[C@@H]2CCOC2)[C@@H]1C (atropisomer, axis not shown) as well.
Reply | 6.00 to 7.00

Ask | Follow-up entry: CCN(c1nc(OC[C@@]23CCCN2C[C@H](F)C3)nc2c(F)c(-c3ccc(F)c4sc(N)c(C#N)c34)c(C(F)(F)F)cc12)[C@H]1C[C@H]2CN(CC(F)F)C(=O)N2C1 (atropisomer, axis not shown)
Reply | 6.00 to 7.00

Ask | What do you have for CN(Cc1ccccn1)c1nc(OC[C@@]23CCCN2C[C@H](F)C3)nc2c(F)c(-c3ccc(F)c4sc(N)c(C#N)c34)c(C(F)(F)F)cc12 (atropisomer, axis not shown) ?
Reply | 5.00 to 6.00

Ask | What do you have for CCN(c1nc(OC[C@@]23CCCN2C[C@H](F)C3)nc2c(F)c(-c3ccc(F)c4sc(N)c(C#N)c34)c(C(F)(F)F)cc12)[C@@H]1CC(=O)N(C)C1 ?
Reply | 6.00 to 7.00
